Overview of reported Vd across a group of molecules:
# ASSAY_NOTES: clinical
# CONDITION_INFO: human, in vivo, iv, Vdss
// return the numeric value with its unit appended

Example results:
MOLECULE	Vd
CC(C)(C)[C@]1(O)CC2OC(=O)CC23C(=O)OC2OC(=O)[C@H](O)C231 (some centres not stated) [BILOBALIDE]	2.5 L/kg
CN(C)CCc1c[nH]c2ccc(C[C@H]3COC(=O)N3)cc12 [ZOLMITRIPTAN]	1.8 L/kg
COc1ccc2[nH]c([S+]([O-])Cc3ncc(C)c(OC)c3C)nc2c1 (configuration not stated) [OMEPRAZOLE]	0.24 L/kg
C[C@H]([C@](O)(Cn1cncn1)c1ccc(F)cc1F)S(C)(=O)=O [GENACONAZOLE]	0.62 L/kg
Nc1nc(N)c2nc(-c3ccccc3)c(N)nc2n1	13 L/kg

Request the reported Vd associated with COC(=O)C1=C(C)NC(C)=C(C(=O)OCCCN2CCC(c3ccccc3)(c3ccccc3)CC2)[C@@H]1c1cccc([N+](=O)[O-])c1 [DEXNIGULDIPINE]
8.4 L/kg

Request the reported Vd associated with c1ccc(C2(c3ccccc3)CC2C2=NCCN2)cc1 (configuration not stated) [CIFENLINE]
4.1 L/kg

Request the reported Vd associated with Cc1ccccc1OCC(O)CNCCOc1ccc(C(N)=O)cc1 (configuration not stated) [TOLAMOLOL]
4 L/kg

====

# ASSAY_NOTES: clinical
# CONDITION_INFO: human, in vivo, iv, CL
Label T for high-side clearance (at or above 5 mL/min/kg) and F for low-side clearance (below it).

Answered cases to consult:
COMPOUND	ANSWER_LABEL
Clc1cccc(Cl)c1N=C1NCCN1 [CLONIDINE]	F
COc1cc2c(cc1OC)[C@@H](Cc1cc(OC)c(OC)c(OC)c1)[N+](C)(CCCOC(=O)CC/C=C/CCC(=O)OCCC[N+]1(C)CCc3cc(OC)c(OC)cc3[C@H]1Cc1cc(OC)c(OC)c(OC)c1)CC2 (some centres undefined)	T
CNC(=C[N+](=O)[O-])NCCSCc1csc(CN(C)C)n1 [NIZATIDINE]	T

# ---- query compound ----
Confirm if clearance reported for the compound O=C(NC1CCN(CCc2c[nH]c3ccccc23)CC1)c1ccccc1 [INDORAMIN] is 5 mL/min/kg or above.
T

====

# CONDITION_INFO: human, in vivo, iv
MEASUREMENT_KIND: MRT (h)
Form entry: value (h) — number only.

Example results:
MOLECULE	MRT, h
COC(=O)C(c1ccccc1)C1CCCCN1 (stereo not drawn) [METHYLPHENIDATE]	4.5
CCC1=C[C@@H]2CN(C1)Cc1c([nH]c3ccccc13)[C@@](C(=O)OC)(c1cc3c(cc1OC)N(C)[C@H]1[C@@](O)(C(=O)OC)[C@H](OC(C)=O)[C@]4(CC)C=CCN5CC[C@]31[C@@H]54)C2 (stereo in doubt; form 2)	18

Lab note: next molecule to report on.
Request the reported MRT associated with CCCCS(=O)(=O)N[C@@H](Cc1ccc(OCCCCC2CCNCC2)cc1)C(=O)O
1.8

====

# ASSAY_NOTES: clinical
# CONDITION_INFO: human, in vivo, iv, t1/2
Numbered stars: 1 amine (or outer) side, 2 acyl side, 3 side chain; on linkers, the order of the positions; unused ones are H or OH. Bridge positions count the residues as written; N and C are the ends. Square brackets hold non-standard residues; d marks the D form. Peptide text beside a SMILES is read from it. * marks the point of attachment. pTerphenylCO(4''-OnC5H11) = CCCCCOc1ccc(-c2ccc(-c3ccc(C(=O)*)cc3)cc2)cc1; Orn(4R-OH,5R-OH) = O=C([C@H](C[C@@H](O)[C@@H](O)N[*:3])N[*:1])[*:2]; hTyr(3S-OH,4S-OH) = N[C@H](C(=O)O)[C@H](O)[C@@H](O)c1ccc(O)cc1; Pro(3S-OH,4S-Me) = C[C@H]1CN[C@H](C(=O)O)[C@H]1O; Hyp = O=C(O)[C@@H]1C[C@@H](O)CN1
MEASUREMENT_KIND: half-life (h)
Form entry: value (h) — number only.

COMPOUND	MEASUREMENT_KIND	SCALE_UNIT	REPORTED
COC(=O)C1=C(C)NC(C)=C(C(=O)OCCCN2CCC(c3ccccc3)(c3ccccc3)CC2)[C@@H]1c1cccc([N+](=O)[O-])c1 [DEXNIGULDIPINE]	half-life	h	22

Request the reported half-life associated with CC(C)(C)NCC(O)c1cc(O)cc(O)c1 (centres undefined) [TERBUTALINE]
15

Request the reported half-life associated with C[C@H]([C@](O)(Cn1cncn1)c1ccc(F)cc1F)S(C)(=O)=O [GENACONAZOLE]
49

Request the reported half-life associated with CCCCCOc1ccc(-c2ccc(-c3ccc(C(=O)N[C@H]4C[C@@H](O)[C@@H](O)NC(=O)[C@@H]5[C@@H](O)[C@@H](C)CN5C(=O)[C@H]([C@@H](C)O)NC(=O)[C@H]([C@H](O)[C@@H](O)c5ccc(O)cc5)NC(=O)[C@@H]5C[C@@H](O)CN5C(=O)[C@H]([C@@H](C)O)NC4=O)cc3)cc2)cc1 [ANIDULAFUNGIN] ({pTerphenylCO(4''-OnC5H11)}-[Orn(4R-OH,5R-OH)]T[Hyp][hTyr(3S-OH,4S-OH)]T[Pro(3S-OH,4S-Me)]; lactam 1-C)
40

Request the reported half-life associated with Nc1ccc(S(=O)(=O)Nc2ncccn2)cc1 [SULFADIAZINE]
7

Request the reported half-life associated with Nc1nc(O)c2ncn(COC(CO)CO)c2n1 [GANCICLOVIR]
3.7

Request the reported half-life associated with N=C(N)N1CCC[C@@H](CNC(=O)C[C@H](NS(=O)(=O)c2ccc3ccccc3c2)C(=O)N(CC(=O)O)C2CC2)C1 [NAPSAGATRAN ANHYDROUS]
1.9

Request the reported half-life associated with N[C@@H](C(=O)N[C@@H]1C(=O)N2C(C(=O)O)=C(CSc3c[nH]nn3)CS[C@H]12)c1ccc(O)cc1 [CEFATRIZINE]
1.2

Request the reported half-life associated with CC=CC1=C(C(=O)O)N2C(=O)[C@@H](NC(=O)[C@H](N)c3ccc(O)cc3)[C@H]2SC1 [CEFPROZIL]
1.2
